Origin of the recorded values: PubChem BioAssay (NCI)

# Test system: SK-MEL-28 melanoma
# Procedure details: NCI tumour cell line growth inhibition, 48 h; in the data active means GI50 below about 0.43 µM; inactive means the rest
Labels: active, inactive

Smiles notation | Study target | Classification
O=C1/C=C/[C@@H](O)[C@@H]2C[C@@H](O)C[C@H]2/C=C/CCC[C@H](CCc2ccc(NC(=S)Nc3ccc4c(c3)C(=O)OC43c4ccc(O)cc4Oc4cc(O)ccc43)cc2)O1 | SK-MEL-28 melanoma | active
Cc1ccc2c(c1)C(=O)/C(=C/c1cccc(OCC(=O)c3ccc(Cl)cc3)c1)CS2 | SK-MEL-28 melanoma | inactive
C#Cc1cccc(Nc2ncnc3ccc(-c4cnc(N)nc4)cc23)c1 | SK-MEL-28 melanoma | inactive
CN(C)c1ccc(/C=N/n2c(CCCCc3n[nH]c(=S)n3/N=C/c3ccc(N(C)C)cc3)n[nH]c2=S)cc1 | SK-MEL-28 melanoma | inactive

====

# Tested on: SF-295 CNS
# Procedure details: NCI tumour cell line growth inhibition, 48 h
Readout label: TGI

Compound | Result
COc1ccc(-c2nsc3c2NC(=O)CC3c2cccc(F)c2)cc1 (centres undefined) | > 100 µM
CC(=O)OC1CC2C(=O)CC1(C)C2(C)C (centres undefined) | > 100 µM
COC(=O)/C=C(C)/C=C/c1c(C)c(C(C)=O)c(C)n1C | > 100 µM
O=C(O)CCC1(CCC(=O)O)CCCCCCCCC(CCC(=O)O)(CCC(=O)O)C(=O)C1=O | > 100 µM
NS(=O)(=O)c1ccc(-n2nc(-c3ccccc3)cc2-c2cc(O)ccc2O)cc1 | > 100 µM
CCOC(=O)C(C(=O)OCC)S(C)(=O)=O | > 100 µM
CN(C)c1ccc(/C=N/n2c(CCCCc3n[nH]c(=S)n3/N=C/c3ccc(N(C)C)cc3)n[nH]c2=S)cc1 | > 100 µM
CC(Oc1ccc2c(=O)cc(-c3ccccc3)oc2c1)C(=O)O (centres undefined) | > 100 µM
Cc1cc2nc3c(C#N)c4c(c(Cl)n3c2cc1C)CCC4 | > 100 µM

====

Recorded GI50 by entry
# Tested on: SK-OV-3 ovarian
# Procedure details: NCI tumour cell line growth inhibition, 48 h
Readout label: GI50

Smiles notation | Result
COc1ccc(-c2ccc(-c3ccc(C(=N)N)cc3)s2)cc1Cl | 1980 nM
CCCCNP1(NCCCC)=NP(NCCCC)(NCCCC)=NP(NCCCC)(NCCCC)=NP(NCCCC)(NCCCC)=N1 | 1070 nM
Cn1cc(-c2csc(-c3cn(CCCN4CCCCC4)c4ccc(Br)cc34)n2)c2cccnc21 | 1920 nM

====

# Tested on: MALME-3M melanoma
# Procedure details: NCI tumour cell line growth inhibition, 48 h

Compound | Study target | Qualifying sign | TGI (µM)
O=C1/C=C/[C@@H](O)[C@@H]2C[C@@H](O)C[C@H]2/C=C/CCC[C@H](CCc2ccc(NC(=S)Nc3ccc4c(c3)C(=O)OC43c4ccc(O)cc4Oc4cc(O)ccc43)cc2)O1 | MALME-3M melanoma | > | 100
Cc1cnc2c(c1)C(=O)N(c1ccc(Br)cc1)S2(=O)=O | MALME-3M melanoma | > | 100
O=c1[nH]nc(-c2ccccc2)n1-n1cccc1 | MALME-3M melanoma | > | 100
CCOC(=O)Cc1ccc(Nc2nc3cc(F)c(F)cc3nc2C(=O)OCC)cc1 | MALME-3M melanoma | > | 100
O=C(Nc1ccccc1)c1cc2cc(CCl)ccc2oc1=O | MALME-3M melanoma | > | 100
CC(C)NC(=O)OCc1c(COC(=O)NC(C)C)c(-c2cc[n+](COC(=O)Cc3ccccc3)cc2)n2c1CCC2 | MALME-3M melanoma | > | 100
COc1ccccc1/C=C1\CCC(CN2CCOCC2)C1=O (stereo not given) | MALME-3M melanoma | = | 23.7
CCCCCCCCCCCCSC1=CC(=O)C=CC1=O | MALME-3M melanoma | > | 50
CCC1=CCC(P(=O)(c2ccccc2)c2ccccc2)CC1C (stereo not given) | MALME-3M melanoma | > | 100
NC1C2C=CC(C2)C1C(=O)O (stereo not given) | MALME-3M melanoma | > | 100
N#Cc1ccc(O)c(C2=NCC(c3ccc(-c4ccccc4)cc3)O2)c1 (stereo not given) | MALME-3M melanoma | = | 14.3
Nc1nc(N)c(CCCCc2ccccc2)c(/C=C/c2ccc([N+](=O)[O-])cc2)n1 | MALME-3M melanoma | = | 9.17
Cc1ccc2c(c1)C(=O)/C(=C/c1cccc(OCC(=O)c3ccc(Cl)cc3)c1)CS2 | MALME-3M melanoma | = | 46.1
CCc1nc(N)nc(N)c1-c1ccc(N(C)Cc2ccccc2)c([N+](=O)[O-])c1 | MALME-3M melanoma | = | 17.1
COc1ccc(C(SCCO)(c2ccc(OC)cc2)c2ccc(OC)cc2)cc1 | MALME-3M melanoma | = | 34.3
